system: Klebsiella pneumoniae; details: Concentration 32 ug.mL-1; ASSAY_TEST Inhibition of Bacterial Growth; detection method Absorption (OD600); MEDIA CAMHB; plate type 384well; NBS; CORNING #3640; time 18 hr
Description: Antibacterial activity against Klebsiella pneumoniae MDR ATCC 70063 (CO-ADD:GN_003); MIC in CAMBH media using NBS plates, by OD(600)
Results with a measured potency or affinity are listed apart.
measured.property: Inhibition
Please provide the amount together with its unit, number first.

Below, each entry is followed by its recorded Inhibition result.
>>> meas_value("CCOC(=O)c1c[nH]c2ccc(OC)cc12")
"1.49%"
>>> meas_value("Cc1nn(-c2ccccc2)c2nc(C)n3nc(-c4ccccc4)nc3c12")
"3.45%"
>>> meas_value("NNC(=O)C1(NC(=O)c2ccccc2)CC1c1cccc(O)c1 (stereo unspecified)")
"19.56%"
>>> meas_value("Cc1ccc2[nH]c(=O)c(C=O)cc2c1")
"6.41%"
>>> meas_value("CS(=O)(=O)O[C@H]1CC[C@H](OS(C)(=O)=O)CC1")
"13.68%"
>>> meas_value("N#Cc1c(NC2CCC(Cc3ccccc3)CC2)nc(NC2CCN(Cc3ccccc3)CC2)c(C#N)c1-c1ccccc1 (stereo unspecified)")
"-7.01%"
>>> meas_value("COc1ccc(C2c3ccc4ccccc4c3OC(=NBr)C2(Br)C#N)cc1OC (stereo unspecified)")
"8.89%"
>>> meas_value("COc1ccc(C=C2N=C(c3ccccc3)OC2=O)cc1")
"13.35%"
>>> meas_value("N#Cc1c(N)nc(Cl)c(C#N)c1-c1ccccc1")
"1.22%"
>>> meas_value("O=C(N/N=C/c1cccc(Cl)c1)c1cc2ccccc2[nH]1")
"-14.42%"

Consider the record given below.
QUERY: Sample Nc1c2c(nc3c1C(c1ccc([N+](=O)[O-])cc1)c1ccc4ccccc4c1O3)CCCC2 (stereo unspecified) — what was its Inhibition?
RESULT: -17.7%
